The measurements presented in this section are drawn from patent US20220267469A1.

Target: T1, Biotinylated human BSSL (human, UniProt P19835 21-753, Biotinylated on glycosacarides, 30-40 biotin/BSSL)
T1 construct: hBSSL biotinylated in house; also called b-hBSSL; human BSSL-biotin
T1 sequence: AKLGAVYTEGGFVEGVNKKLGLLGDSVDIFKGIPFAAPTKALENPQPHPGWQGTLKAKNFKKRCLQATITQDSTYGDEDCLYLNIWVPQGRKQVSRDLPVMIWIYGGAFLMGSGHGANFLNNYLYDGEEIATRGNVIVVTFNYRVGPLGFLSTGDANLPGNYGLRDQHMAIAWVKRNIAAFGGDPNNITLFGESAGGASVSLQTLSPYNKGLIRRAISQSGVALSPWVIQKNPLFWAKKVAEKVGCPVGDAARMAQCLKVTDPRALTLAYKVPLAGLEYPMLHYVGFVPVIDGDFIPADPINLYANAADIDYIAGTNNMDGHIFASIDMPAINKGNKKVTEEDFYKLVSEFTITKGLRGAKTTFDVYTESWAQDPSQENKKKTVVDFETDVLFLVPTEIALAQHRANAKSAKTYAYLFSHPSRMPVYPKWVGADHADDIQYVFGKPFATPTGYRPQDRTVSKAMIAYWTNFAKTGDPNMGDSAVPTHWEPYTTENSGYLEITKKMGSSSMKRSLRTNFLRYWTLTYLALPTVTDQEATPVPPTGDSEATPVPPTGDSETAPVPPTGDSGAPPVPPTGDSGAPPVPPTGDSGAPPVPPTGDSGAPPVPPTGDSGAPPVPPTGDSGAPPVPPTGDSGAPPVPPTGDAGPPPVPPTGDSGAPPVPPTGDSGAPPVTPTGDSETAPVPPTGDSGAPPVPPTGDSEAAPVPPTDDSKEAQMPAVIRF
Assay: flow cytometry displacement assay; 1.5 ug antibody, 1 ug b-hBSSL
Description: The 28 BSSL-specific hIgG4 antibodies and the five reference antibodies at different concentrations (ranging from 0.5 μg to 3.0 μg per reaction; see Table 10) were added to b-hBSSL (1 μg per reaction, see Table 2) in round-bottom polystyrene tubes, lx PBS (pH 7.4) was added to a final volume of 20 μl and the antibody/b-hBSSL mixtures were incubated for 30 min. at +4° C. to facilitate binding of antibodies to BSSL. […]
Assign class by percentage reduction of b-hBSSL binding to CD14+ monocytes: not lower than 30% means Fulfilled; lower than 30% means Not fulfilled.

Inquiry: Given S-SL048-109 hIgG4 S228P (antibody, V domains shown, Tested as human IgG4 S228P) VH: QVQLVQSGAEVKKPGASVKVSCKASGYTFTSYNMHWVRQAPGQGLEWMGVINPSDGATSYAQKFKGRVTMTRDTSTSTVYMELSSLRSEDTAVYYCARDYYGSSPLGYWGQGTLVTVSS VL: DIQMTQSPSSLSASVGDRVTITCRASPSISYLNWYQQKPGKAPKLLIYATSRLASGVPSRFSGSGSGTDFTLTISSLQPEDFATYYCQQRSSSPTFGQGTKLEIK , state whether its percentage reduction of b-hBSSL binding to CD14+ monocytes is at least 30%.
Reply text: Fulfilled

Inquiry: Dear colleague, could you confirm whether S-SL048-104 hIgG4 S228P (antibody, V domains shown, Tested as human IgG4 S228P) VH: QVQLVQSGAEVKKPGASVKVSCKASGYTFTSYNMHWVRQAPGQGLEWMGVINPGDGATSYDQKFKGRVTMTRDTSTSTVYMELSSLRSEDTAVYYCARDYYGSSPLGYWGQGTLVTVSS VL: DIQMTQSPSSLSASVGDRVTITCSASSSISYLHWYQQKPGKAPKLLIYAASRLASGVPSRFSGSGSGTDFTLTISSLQPEDFATYYCHQRSSTPTFGQGTKLEIK has percentage reduction of b-hBSSL binding to CD14+ monocytes at or above 30%?
Reply text: Not fulfilled

Inquiry: Determine whether measured percentage reduction of b-hBSSL binding to CD14+ monocytes meets or exceeds 30% for S-SL048-17 hIgG4 S228P (antibody, V domains shown, Tested as human IgG4 S228P) VH: QVQLVQSGAEVKKPGASVKVSCKASGYTFTSYNMHWVRQAPGQGLEWMGVINPGDGYTSYTQKFKGRVTMTRDTSTSTVYMELSSLRSEDTAVYYCARDYYGSSPLGYWGQGTLVTVSS VL: DIQMTQSPSSLSASVGDRVTITCRASQSISYLNWYQQKPGKAPKLLIYAASKLPSGVPSRFSGSGSGTDFTLTISSLQPEDFATYYCQQRSSSPTFGQGTKLEIK
Reply text: Not fulfilled

Inquiry: # bool: percentage reduction of b-hBSSL binding to CD14+ monocytes of S-SL048-112 hIgG4 S228P (antibody, V domains shown, Tested as human IgG4 S228P) VH: QVQLVQSGAEVKKPGASVKVSCKASGYTFTSYNMHWVRQAPGQGLEWIGIIYPGDGATSYNQKFKGRVTMTRDTSTSTVYMELSSLRSEDTAVYYCARDYYGSSPLGYWGQGTLVTVSS VL: DIQMTQSPSSLSASVGDRVTITCRASSSISYMHWYQQKPGKAPKLLIYATSRLASGVPSRFSGSGSGTDFTLTISSLQPEDFATYYCHQRSSTPTFGQGTKLEIK >= 30%
Reply text: Not fulfilled

Inquiry: Does S-SL048-18 hIgG4 S228P (antibody, V domains shown, Tested as human IgG4 S228P) VH: QVQLVQSGAEVKKPGASVKVSCKASGYTFTSYNMHWVRQAPGQGLEWMGVINPSDGATSYTQKFKGRVTMTRDTSTSTVYMELSSLRSEDTAVYYCARDYYGSSPLGYWGQGTLVTVSS VL: DIQMTQSPSSLSASVGDRVTITCRASSSISYLNWYQQKPGKAPKLLIYATSRLQSGVPSRFSGSGSGTDFTLTISSLQPEDFATYYCHQRSSTPTFGQGTKLEIK have a reported percentage reduction of b-hBSSL binding to CD14+ monocytes of at least 30%?
Reply text: Fulfilled
